- MEASURED ON: KIX domain of CBP (UniProt P45481 586-665)
- Sequence (P45481 586-665): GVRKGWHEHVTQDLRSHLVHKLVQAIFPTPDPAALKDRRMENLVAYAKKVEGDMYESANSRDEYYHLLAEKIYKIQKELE
- TEST PROTOCOL: dissociation kinetics by competition; FITC-pKID displaced from KIX by unlabeled competitor cMybTAD; kdiss = asymptote of the observed dissociation rate against competitor concentration
- CONDITION DETAILS: both partners purified
Non-standard residues stand in square brackets, D forms with d. No end group written: not given here. *: point of attachment. FITC = O=C1OC2(c3ccc(O)cc3Oc3cc(O)ccc32)c2ccc(NC(=S)*)cc21; pS = N[C@@H](COP(=O)(O)O)C(=O)O
Below, each entry is listed with its recorded koff.
Report only the number, with the unit s⁻¹ understood.

{FITC}-DSVTDSQKRREILSRRP[pS]YRKILNDLASDAP (peptide, UniProt P15337-1 116-146, looked up, source: synthetic peptide, bought: Biomatik) [FITC-pKID S142A]
0.83
{FITC}-DSVTDSQKRREIASRRP[pS]YRKILNDLSSDAP (peptide, UniProt P15337-1 116-146, looked up, source: synthetic peptide, bought: Biomatik) [FITC-pKID L128A]
15.7
{FITC}-DSVTDSQKRREILSRRP[pS]YRKALNDLSSDAP (peptide, UniProt P15337-1 116-146, looked up, source: synthetic peptide, bought: Biomatik) [FITC-pKID I137A]
43.9
{FITC}-DSVTDSQKRREILSRRPSYRKILNDLSSDAP (peptide, UniProt P15337-1 116-146, looked up, 'pSer to Ser' in the text; also called ∆pS133; pS133S; source: synthetic peptide, bought: Biomatik) [FITC-KID, not phosphorylated at Ser133 (CREB residues 116-146)]
56.7

Continue with the next binder.
Q: Need koff, item {FITC}-DSVTDSQKRREILSRRP[pS]YRKIANDLSSDAP (peptide, UniProt P15337-1 116-146, looked up, source: synthetic peptide, bought: Biomatik) [FITC-pKID L138A]
Ans: 13.2
